Value source: PubChem BioAssay AID493105

Each entry below carries its reported inhibition.
System: emLYPLA2
Test: LYPLA1 and LYPLA2 inhibitors, biochemical, gel-based ABPP, fluorescence, recombinant and endogenous enzyme (AID 493105)
Conditions: fluorescent probe labeling, membrane fraction, at 20 µM, active compounds read high
The source made the active and inactive calls. The rule behind the calls is not given here.

# example entries with known answers
- Compound Structure String: "O=[N+]([O-])c1cccc(/C=N/N2CCN(Cc3ccc(Cl)cc3)CC2)c1"
  inhibition: "0% (inactive)"
- Compound Structure String: "O=C(COc1ccc(Cl)cc1)N1CCN(c2ccc([N+](=O)[O-])c(N3CCOCC3)c2)CC1"
  inhibition: "0% (inactive)"

Proceeding to the next compound to report its inhibition.
So what does the record say about inhibition for COc1ccc2c(c1)C(=O)[C@H](O)[C@@H](c1ccc(OC)c(Br)c1)O2 ?
73%

---

Tested on: rhLYPLA2
Test: LYPLA1 and LYPLA2 inhibitors, biochemical, gel-based ABPP, fluorescence, recombinant and endogenous enzyme (AID 493105)
Conditions: fluorescent probe labeling, membrane fraction, at 20 µM, active compounds read high
Measure: inhibition (%)
Give just the numeric value; % need not be written.

Example entries and their recorded answers appear below.
- Compound: "Cc1ccc(CN2CCN(/N=C/C=C/c3ccccc3[N+](=O)[O-])CC2)cc1"
  Reported Measurement: 10
- Compound: "CC1CN(Cc2cc(=O)oc3cc(O)c(Cl)cc23)CC(C)O1 (centres undefined)"
  Reported Measurement: 3
- Compound: "O=C(O)c1ccc2c(c1)C(=O)N(CCCCCCCN1C(=O)c3ccc(C(=O)O)cc3C1=O)C2=O"
  Reported Measurement: 0

# context switch: different compound, same inhibition
GET /values?readout=inhibition&item= COc1ccc(C(=O)NC(=S)Nc2ccc(N3CCOCC3)cc2)cc1Cl
1

---

Test system: emLYPLA1
Assay: LYPLA1 and LYPLA2 inhibitors, biochemical, gel-based ABPP, fluorescence, recombinant and endogenous enzyme (AID 493105)
Conditions: fluorescent probe labeling, membrane fraction, at 20 µM, active compounds read high
Measure: inhibition (%)
Hi! Could you send only the number? It should be in %, unit omitted.

- Compound: "CC(NC(=O)c1ccco1)C(=O)N1CCN(c2cccc(C(F)(F)F)c2)CC1 (centres undefined)"
  Assay Target: "emLYPLA1"
  U: "%"
  inhibition: 0
- Compound: "O=C(CN1CCN(c2ccccn2)CC1)Nc1cc(C(F)(F)F)ccc1Cl"
  Assay Target: "emLYPLA1"
  U: "%"
  inhibition: 0
- Compound: "Clc1ccc(C(c2ccc(Cl)cc2)n2cc[n+](CC(OCc3ccc(Cl)cc3Cl)c3ccc(Cl)cc3Cl)c2)cc1 (centres undefined)"
  Assay Target: "emLYPLA1"
  U: "%"
  inhibition: 0

Now for another entry.
Requested read-out: inhibition. Entry: CCC(=O)N1CCN(c2ccc(NC(=S)NC(=O)c3ccc(OC)c([N+](=O)[O-])c3)cc2)CC1
13
